Molecular target: HLA-DRB3*0101 (human)
Test: competition binding
Conditions: modification not given
Parameter: IC50. Scope: all listed entries.

Below, each entry is followed by its recorded IC50 result.
YAYDGKDYIALKEDL [p24]    > 100 µM
VDLGTLRGYYNQSEA [p14*]    > 100 µM

Pending binder:
The reported value for RKVKAHSQTHRVDLG [p12] in terms of IC50 is > 100 µM
